Reference source: PubChem BioAssay AID248

- Test system: L1210 leukemia ip in BDF1 mice, survival T/C
- test details: NCI In Vivo Anticancer Drug Screen. Data for tumor model L1210 Leukemia (intraperitoneal) in B6D2F1 (BDF1) mice
- cond: endpoint: mean survival time; dose: 400.0 mg/kg/injection; schedule: Q04DX002 (ip); vehicle: Klucel (hydroxypropylcellulose) (HPC); higher = longer survival
Toxic doses and inconclusive results are not listed.
measurement kind: T/C

Input line: Entry under review: Cc1ccccc1NC(=O)Oc1ccc2ccccc2c1 . Reported T/C?
Output line: 106 % of control

Input line: Entry under review: CC(C)CCN1C(c2ccccc2)=CN(Cc2ccccc2)C=C1c1ccccc1 . Reported T/C?
Output line: 95 % of control

Input line: Entry under review: CC(=O)c1ccc(CCCC2CCCC2)cc1 . Reported T/C?
Output line: 91 % of control

Input line: Entry under review: Cc1nc(NN)ccc1[N+](=O)[O-] . Reported T/C?
Output line: 96 % of control

Input line: Entry under review: COc1cc(C(C)=O)ccc1O . Reported T/C?
Output line: 89 % of control

Input line: Entry under review: COc1cc(C(=O)Nc2ccccc2SC)cc(OC)c1OC . Reported T/C?
Output line: 90 % of control

Input line: Entry under review: CCN(CC)C(=S)N1CCCCC1 . Reported T/C?
Output line: 110 % of control

Input line: Entry under review: ClC(Cl)(Cl)c1cccc(-c2nc(C(Cl)(Cl)Cl)nc(C(Cl)(Cl)Cl)n2)c1 . Reported T/C?
Output line: 100 % of control

Input line: Entry under review: CCCCCCCC(=O)N1CCCCC1C (configuration not stated) . Reported T/C?
Output line: 98 % of control

Input line: Entry under review: CCOC(=O)CNc1cccc(C(F)(F)F)c1 . Reported T/C?
Output line: 98 % of control

Input line: Entry under review: Cc1cc([N+](=O)[O-])ccc1NC(=O)Nc1cccc(F)c1 . Reported T/C?
Output line: 88 % of control

Input line: Entry under review: Clc1cc(Cc2ccc(N=C/C=C/c3ccccc3)c(Cl)c2)ccc1N=C/C=C\c1ccccc1 . Reported T/C?
Output line: 86 % of control

###

- Tested on: L1210 leukemia ip in BDF1 mice, survival T/C
- test details: NCI In Vivo Anticancer Drug Screen. Data for tumor model L1210 Leukemia (intraperitoneal) in B6D2F1 (BDF1) mice
- cond: endpoint: mean survival time; dose: 100.0 mg/kg/injection; schedule: Q04DX003 (ip); vehicle: Klucel (hydroxypropylcellulose) (HPC); higher = longer survival
Inconclusive results and toxic doses are left out.
Please provide measured T/C for the entries that follow.

Input line: Entry under review: O=C(c1ccccc1)C(CBr)C(Br)c1ccccc1 (stereo unspecified) . Reported T/C?
Output line: 98 % of control

Input line: Entry under review: C=CCOc1cc(C)cc(C)c1C . Reported T/C?
Output line: 112 % of control

Input line: Entry under review: O=C(O)COc1ccc(OCC(=O)O)cc1 . Reported T/C?
Output line: 95 % of control

Input line: Entry under review: CCCCCCCCCCCCOc1ccc(C=O)cc1OC . Reported T/C?
Output line: 95 % of control

Input line: Entry under review: COc1cc(OC)cc(C(N)=O)c1 . Reported T/C?
Output line: 86 % of control

Input line: Entry under review: Cc1ccc(S(=O)(=O)N(C)c2cc(Cl)c(C(=O)O)c(Cl)c2)cc1 . Reported T/C?
Output line: 96 % of control

Input line: Entry under review: CCCCC(NC(C)=O)C(=O)O (stereo unspecified) . Reported T/C?
Output line: 90 % of control

Input line: Entry under review: c1ccc2cc(SCCCN3CCOCC3)ccc2c1 . Reported T/C?
Output line: 95 % of control

Input line: Entry under review: CCCCCCCCC(=O)NCc1cccc(OC)c1 . Reported T/C?
Output line: 95 % of control

Input line: Entry under review: CCCCCCC/C=N/NC(=O)c1ccccc1 . Reported T/C?
Output line: 105 % of control

Input line: Entry under review: CCCCCCCC(=O)CCC . Reported T/C?
Output line: 98 % of control

Input line: Entry under review: O=C(O)c1cccc(NC(=O)C(F)(F)F)c1 . Reported T/C?
Output line: 102 % of control

Input line: Entry under review: CN(C)c1ccc2cc(S(=O)(=O)O)cc(O)c2c1 . Reported T/C?
Output line: 105 % of control

Input line: Entry under review: CC(=O)NCCCOc1ccc([N+](=O)[O-])cc1 . Reported T/C?
Output line: 101 % of control

Input line: Entry under review: CC(C)=CCN(CC=C(C)C)CCC(O)(Cc1ccccc1)c1ccccc1 (stereo unspecified) . Reported T/C?
Output line: 97 % of control

Input line: Entry under review: CCCCCCCCCC(=O)NC(=S)Nc1ccc(Br)cc1 . Reported T/C?
Output line: 92 % of control

Input line: Entry under review: CCOc1ccc(/C=N\N=C\c2ccc(OCC)cc2)cc1 . Reported T/C?
Output line: 93 % of control

Input line: Entry under review: COc1cc(OC)c(N=Cc2ccc([N+](=O)[O-])s2)cc1Cl . Reported T/C?
Output line: 101 % of control

Input line: Entry under review: O=C1/C(=C/c2c(Cl)cccc2Cl)CCC/C1=C\c1c(Cl)cccc1Cl . Reported T/C?
Output line: 111 % of control

Input line: Entry under review: CCCCCCCCCCCCCC[N+](C)(C)Cc1cc(=O)c(O)co1 . Reported T/C?
Output line: 87 % of control

Input line: Entry under review: C=C1CC(c2ccccc2)(c2cccs2)OC1=O (stereo unspecified) . Reported T/C?
Output line: 98 % of control

Input line: Entry under review: CC(=O)CC(=O)Nc1ccccn1 . Reported T/C?
Output line: 97 % of control

Input line: Entry under review: NS(=O)(=O)c1ccc(NC(=O)Nc2cc([N+](=O)[O-])ccc2F)cc1 . Reported T/C?
Output line: 98 % of control

Input line: Entry under review: ClC1=C(Br)C(Br)(Br)C(=C(Br)Br)C1(Br)Br . Reported T/C?
Output line: 106 % of control

Input line: Entry under review: COc1cc2c(cc1OC)C1=CC(=O)N3CCCC34OS(=O)OC14CC2 (stereo unspecified) . Reported T/C?
Output line: 98 % of control

Input line: Entry under review: CC(=O)NCC1OC(COCc2ccccc2)C(OCc2ccccc2)C1OCc1ccccc1 (stereo unspecified) . Reported T/C?
Output line: 107 % of control
